Below, each of the compounds is paired with its reported log P value.
assay: Determination of the log P values by HPLC (formic acid method); format: physicochemical; settings: reversed-phase column (C 18), acidic range (pH 3.4), 55° C.
Lab note: jot down the number only; don't add units.

Output log P of `O=C(Nc1cnn(-c2ncc(F)cc2F)n1)c1ncccc1C(F)(F)F`
2.28

Output log P of `N#Cc1cc(F)ccc1-n1ccc(NC(=O)c2cccnc2C(F)(F)F)n1`
2.21

Output log P of `O=C(Nc1ccn(-c2ncccc2C(F)(F)F)n1)c1ccccc1C(F)(F)F`
2.72

Output log P of `O=C(NC1=NN(c2c(F)cccc2F)CC1)c1c(F)cccc1F`
2.59

Output log P of `O=C(Nc1ccn(-c2cnc(Cl)cn2)n1)c1ccccc1Br`
2.84

Output log P of `Cc1ccccc1C(=O)NC1=NN(c2c(F)cccc2F)CC1`
2.21

Output log P of `N#Cc1c(F)cccc1-n1ccc(NC(=O)c2cccnc2Cl)n1`
1.95

Output log P of `N#Cc1c(F)cccc1-n1ccc(NC(=O)c2ccccc2C(F)(F)F)n1`
2.72

Output log P of `O=C(Nc1ccn(-c2ncc(F)cc2F)n1)c1ccccc1[N+](=O)[O-]`
2.00

Output log P of `Cc1ccsc1C(=O)Nc1ccn(-c2ncc(F)cc2F)n1`
2.38

====

test: Determination of the log P values by HPLC (formic acid method); assay type: physicochemical; settings: reversed-phase column (C 18), acidic range (pH 3.4), 55° C.
Below, each of the compounds is paired with its reported log P value.
Lab note: jot down the number only; don't add units.

Observe how each entry below is paired with its result.
{"molecular string": "O=C(Nc1nn(-c2ncc(F)cc2F)c2ccccc12)c1ccccc1Br", "log P": 3.09}
{"molecular string": "O=C(Nc1cnn(-c2c(F)cccc2F)n1)c1nccnc1C(F)(F)F", "log P": 2.60}
{"molecular string": "O=C(Nc1ccn(-c2ncnc(F)c2F)n1)c1c(F)cccc1F", "log P": 2.29}

Field: next compound
Output log P of `O=C(Nc1ccn(-c2ncc(F)cc2F)n1)c1ccsc1I`
2.53

====

test: Determination of the log P values by HPLC (formic acid method); type: physicochemical; settings: reversed-phase column (C 18), acidic range (pH 3.4), 55° C.
value kind: log P
Lab note: jot down the number only; don't add units.

{"molecular string": "O=C(Nc1ccn(-c2cnc(Cl)cn2)n1)c1cccnc1C(F)(F)F", "assay result": 2.45}
{"molecular string": "O=C(Nc1ccn(-c2cccc(Cl)c2F)n1)c1ccccc1C(F)(F)F", "assay result": 3.37}

Field: next molecule
Output log P of `Cc1nn(-c2ncccc2Cl)nc1N(C(=O)c1ccccc1C(F)(F)F)C(=O)c1ccccc1C(F)(F)F`
3.93

====

experiment: Determination of the log P values by HPLC (formic acid method); assay type: physicochemical; conditions: reversed-phase column (C 18), acidic range (pH 3.4), 55° C.
value kind: log P
Lab note: jot down the number only; don't add units.

Output log P of `COc1ccccc1-n1ccc(NC(=O)c2cccnc2Br)n1`
2.12

Output log P of `CCn1nc(C)c(Cl)c1C(=O)Nc1ccn(-c2c(F)cccc2F)n1`
3.15

Output log P of `Cn1nc(C(F)F)c(C(=O)Nc2ccn(-c3ccccc3Br)n2)c1F`
2.63

Output log P of `Cc1cn(-c2ccccc2Cl)nc1NC(=O)c1ccccc1I`
2.99
